- TARGET_SYSTEM: opioid receptor delta (Homo sapiens, UniProt P41143)
- Construct: expressed in transfected cells
- Sequence (P41143 whole entry): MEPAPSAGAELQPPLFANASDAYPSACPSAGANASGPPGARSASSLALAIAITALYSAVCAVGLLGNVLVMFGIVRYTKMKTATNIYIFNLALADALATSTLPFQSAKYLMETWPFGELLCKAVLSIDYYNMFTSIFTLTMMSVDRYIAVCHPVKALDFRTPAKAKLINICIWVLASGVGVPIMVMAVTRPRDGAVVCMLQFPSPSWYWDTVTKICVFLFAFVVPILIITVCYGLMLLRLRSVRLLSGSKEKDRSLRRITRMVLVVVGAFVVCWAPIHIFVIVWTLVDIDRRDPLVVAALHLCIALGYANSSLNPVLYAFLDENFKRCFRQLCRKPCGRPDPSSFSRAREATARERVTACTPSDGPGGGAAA
- PROCEDURE_TEXT: GTPγ[35S] binding assay, antagonism of BW-373U86
- Assay type: biochemical
- ASSAY_SETUP: read-out: Delta functional Ki (GTPγ[35S] binding)
Each entry below carries its recorded Ki.
ASSAY_ENDPOINT: Ki (nM)

{"MOLECULE": "Cc1cc(C(N)=O)ccc1-c1ccc(CNCc2ccccn2)cc1 [4B-44]", "OBSERVED": 26.1}
{"MOLECULE": "Cc1cc(CNCCC(C)C)ccc1-c1ccc(NS(C)(=O)=O)cc1 [E8-01]", "OBSERVED": 32.6}
{"MOLECULE": "CC(C)CCNCc1ccc(-c2cccc(-c3ncn[nH]3)c2)cc1 [7A-01]", "OBSERVED": 26.1}
{"MOLECULE": "CC(C)CCNCc1ccc(-c2ccc(C(N)=O)cc2Cl)c(Cl)c1 [4B-66]", "OBSERVED": 7.52}
{"MOLECULE": "NC(=O)c1ccc(-c2ccc(CN[C@H]3CCc4ccccc43)cc2)c(Cl)c1 [4B-38]", "OBSERVED": 5.59}
{"MOLECULE": "CC(C)CCNCc1ccc(-c2ccc(-c3ncn[nH]3)cc2)cc1 [7B-01]", "OBSERVED": 311}

---

- TARGET_SYSTEM: opioid receptor mu (Homo sapiens)
- Construct: expressed in transfected cells
- Sequence (P35372 whole entry): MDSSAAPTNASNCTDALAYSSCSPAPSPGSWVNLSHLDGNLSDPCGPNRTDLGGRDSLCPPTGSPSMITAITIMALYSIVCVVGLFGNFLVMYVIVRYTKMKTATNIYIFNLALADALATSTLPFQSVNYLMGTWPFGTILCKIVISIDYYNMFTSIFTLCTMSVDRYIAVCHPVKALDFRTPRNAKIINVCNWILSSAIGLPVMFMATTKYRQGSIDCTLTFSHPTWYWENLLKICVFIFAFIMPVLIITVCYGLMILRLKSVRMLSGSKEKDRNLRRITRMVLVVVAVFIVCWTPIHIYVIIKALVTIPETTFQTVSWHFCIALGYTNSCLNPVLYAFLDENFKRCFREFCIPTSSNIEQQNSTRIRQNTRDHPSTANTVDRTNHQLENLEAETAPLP
- PROCEDURE_TEXT: GTPγ[35S] binding assay, antagonism of endorphin
- Assay type: biochemical
- ASSAY_SETUP: read-out: Mu functional Ki (GTPγ[35S] binding)
Each entry below carries its recorded Ki.

{"CHEM_SMILES": "Cc1cc(C(N)=O)ccc1-c1ccc(CN[C@H](C)c2ccccc2)cc1", "Ki / nM": 61.4}
{"CHEM_SMILES": "Cc1cc(C(N)=O)ccc1-c1cc(F)c(CN[C@H](C)c2ccccn2)c(F)c1", "Ki / nM": 92.7}
{"CHEM_SMILES": "Cc1cc(CNCC2CCOCC2)ccc1-c1ccc(C(N)=O)cc1C", "Ki / nM": 8.37}
{"CHEM_SMILES": "NC(=O)c1ccc(-c2ccc(CNCCC3CCOCC3)cc2)c(Cl)c1", "Ki / nM": 13.7}
{"CHEM_SMILES": "Cc1cc(C(N)=O)ccc1-c1ccc(CNC2Cc3ccccc3C2)c(O)c1", "Ki / nM": 0.134}
{"CHEM_SMILES": "NC(=O)c1ccc(-c2ccc(CNC[C@H]3CCCO3)cc2Cl)c(Cl)c1", "Ki / nM": 35.1}
{"CHEM_SMILES": "Cc1cc(C(N)=O)ccc1-c1cc(F)c(CNC[C@@H]2CCCO2)c(F)c1", "Ki / nM": 30.7}
{"CHEM_SMILES": "Cc1cc(C(N)=O)cc(Cl)c1-c1ccc(CNCCC(C)C)cc1", "Ki / nM": 2.72}
{"CHEM_SMILES": "Cc1cc(-c2ccc(C(N)=O)cc2C)ccc1CNCCC(C)C", "Ki / nM": 1.17}
{"CHEM_SMILES": "NC(=O)c1ccc(-c2ccc(CNCCC3CCOCC3)cc2Cl)c(Cl)c1", "Ki / nM": 7.22}
{"CHEM_SMILES": "Cc1cc(C(N)=O)ccc1-c1ccc(CNCc2ccccn2)cc1", "Ki / nM": 61.7}
{"CHEM_SMILES": "Cc1cc(C(N)=O)ccc1-c1ccc(CNCCC2CCOCC2)c(F)c1", "Ki / nM": 3.9}
{"CHEM_SMILES": "CC(C)CCNCc1ccc(-c2ccc(-c3ncn[nH]3)cc2)cc1", "Ki / nM": 10.3}

---

Each entry below carries its recorded pKi.
- TARGET_SYSTEM: opioid receptor kappa (Homo sapiens, UniProt P41145)
- Construct: expressed in transfected cells
- Sequence (P41145 whole entry): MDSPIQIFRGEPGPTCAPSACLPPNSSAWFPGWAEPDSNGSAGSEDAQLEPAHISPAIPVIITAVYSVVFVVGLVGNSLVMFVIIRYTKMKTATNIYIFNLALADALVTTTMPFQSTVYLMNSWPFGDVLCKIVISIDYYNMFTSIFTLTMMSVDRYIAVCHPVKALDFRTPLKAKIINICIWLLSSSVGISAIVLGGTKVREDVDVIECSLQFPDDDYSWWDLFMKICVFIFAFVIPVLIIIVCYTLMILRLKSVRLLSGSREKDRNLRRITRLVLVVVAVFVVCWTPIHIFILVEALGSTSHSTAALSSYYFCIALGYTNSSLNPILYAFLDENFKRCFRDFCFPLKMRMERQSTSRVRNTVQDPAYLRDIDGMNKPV
- PROCEDURE_TEXT: GTPγ[35S] binding assay, antagonism of dynorphin-A
- Type: biochemical
- ASSAY_SETUP: read-out: Kappa functional Ki (GTPγ[35S] binding)
pKi: −log10 of the molar value.
ASSAY_ENDPOINT: pKi

{"CHEM_SMILES": "Cc1cc(-c2ccc(C(N)=O)cc2C)ccc1CNCCC(C)C", "ASSAY_ENDPOINT": "pKi", "OBSERVED": 8.78}
{"CHEM_SMILES": "CC(C)CCNCc1ccc(-c2ccc(C(N)=O)cc2Cl)c(Cl)c1", "ASSAY_ENDPOINT": "pKi", "OBSERVED": 8.60}
{"CHEM_SMILES": "Cc1cc(CNCC2CCOCC2)ccc1-c1ccc(C(N)=O)cc1C", "ASSAY_ENDPOINT": "pKi", "OBSERVED": 8.16}
{"CHEM_SMILES": "NC(=O)c1ccc(-c2ccc(CNCCC3CCOCC3)cc2)c(Cl)c1", "ASSAY_ENDPOINT": "pKi", "OBSERVED": 8.34}
{"CHEM_SMILES": "NC(=O)c1ccc(-c2ccc(CNCCC3CCCC3)cc2)c(Cl)c1", "ASSAY_ENDPOINT": "pKi", "OBSERVED": 8.89}
{"CHEM_SMILES": "CC(C)CCNCc1ccc(-c2ccc(C(N)=O)cc2OCc2ccccc2)cc1", "ASSAY_ENDPOINT": "pKi", "OBSERVED": 8.01}

---

Each entry below carries its recorded pKi.
- TARGET_SYSTEM: opioid receptor delta (Homo sapiens, UniProt P41143)
- Construct: expressed in transfected cells
- PROCEDURE_TEXT: GTPγ[35S] binding assay, antagonism of BW-373U86
- Format: biochemical
- ASSAY_SETUP: read-out: Delta functional (GTPγ[35S] binding Ki)
- Procedure: Membranes were prepared from cells as described (Bass et al, 1996). […] Stimulation of GTPγ[^35S] binding was then quantified using a Wallac Microbeta and Ki calculations were done using Prism™ by Graphpad.
pKi: −log10 of the molar value.

{"CHEM_SMILES": "CC(C)CCNCc1ccc(-c2ccc(C(N)=O)cc2)cc1", "TARGET_SYSTEM": "opioid receptor delta (Homo sapiens, UniProt P41143)", "pKi": 7.85}
{"CHEM_SMILES": "Cc1cc(C(N)=O)ccc1-c1ccc(CNCc2ccc3c(c2)CC(C)(C)O3)cc1", "TARGET_SYSTEM": "opioid receptor delta (Homo sapiens, UniProt P41143)", "pKi": 8.61}
{"CHEM_SMILES": "NC(=O)c1ccc(F)c(-c2cc(F)c(CNC3Cc4ccccc4C3)c(F)c2)c1", "TARGET_SYSTEM": "opioid receptor delta (Homo sapiens, UniProt P41143)", "pKi": 8.18}
{"CHEM_SMILES": "Cc1cc(C(N)=O)ccc1-c1ccc(CNCCC(C)C)cc1", "TARGET_SYSTEM": "opioid receptor delta (Homo sapiens, UniProt P41143)", "pKi": 8.10}
{"CHEM_SMILES": "Cc1cc(C(N)=O)ccc1-c1ccc(CNCCc2ccccc2)cc1", "TARGET_SYSTEM": "opioid receptor delta (Homo sapiens, UniProt P41143)", "pKi": 8.74}
{"CHEM_SMILES": "Cc1cc(C(N)=O)ccc1-c1ccc(CNCc2ccc3c(c2)CCO3)cc1", "TARGET_SYSTEM": "opioid receptor delta (Homo sapiens, UniProt P41143)", "pKi": 8.38}
